- Measured On: Tyrosine-protein kinase Fer (Homo sapiens)
- Condition Notes: at 0.1 µM;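 further: reported figures are averaged percent inhibition of FER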
Endpoint: inhibition (%)
Give bare numbers, in %.

Entry Smiles	Unit Of Measurement	inhibition
Cc1ccc(NC(=O)CC2CC2)cc1-c1ccc(C(=O)NCC2CC2)cc1	%	4.27

For every item in the list below, what is its measured inhibition?
1. [O-][S+]1CCN(Cc2ccc(-c3ccc4ncnc(Nc5ccc(OCc6ccccc6)c(Cl)c5)c4c3)o2)CC1
2. C[C@@H](Oc1cc(-n2cnc3ccc(OC[C@@H](O)CO)cc32)sc1C(N)=O)c1ccccc1Cl
3. Nc1nccc(-c2c(-c3ccc(F)cc3)nn3cc(C(F)(F)F)ccc23)n1
4. CN(C)c1cc2c(Nc3ccc4c(cnn4Cc4ccccc4)c3)ncnc2cn1
5. COc1cccc(-n2nc(C)c3c(N/N=C(\C)c4ccncc4)ncnc32)c1
6. NS(=O)(=O)c1ccc(N/N=C2\C(=O)Nc3ccc(Cl)cc32)cc1
7. CN(C)C(=O)O[C@@H]1CN[C@@H](C#Cc2cc3ncnc(Nc4ccc(OCc5cccc(F)c5)c(Cl)c4)c3s2)C1

Found:
1: -2.55; 2: -1.75; 3: 5.04; 4: 1.79; 5: 1.02; 6: 2.95; 7: 0.75

Lookup: Please look up its inhibition: CN(C)C(=O)O[C@H]1CN[C@H](C#Cc2cc3ncnc(Nc4ccc(OCc5cccc(F)c5)c(Cl)c4)c3s2)C1
Found: 1.02
